Tested on: His-TEV-DYRK1A Kinase domain (aa127-485) (Homo sapiens)
Construct: His-TEV-DYRK1A Kinase domain (aa127-485); His tag (N); TEV protease cleavage site (N)
Measurement notes: Kinase ADP assay (ADP Hunter), DYRK1A kinase domain
Type: biochemical
Experimental conditions: 20 μM ATP
Label key: satisfied means IC50 under 0.06 µM; not satisfied means IC50 of 0.06 µM or more.

Molecule	Label class
Cc1nc2ccc(-c3cc(N)nc(N)c3)nc2n1C(C)(C)C	satisfied
Cc1nc2ccc(-c3c(F)c(N)nc(N)c3F)nc2n1C1CC1	not satisfied
Cc1nc2ccc(-c3cc(N)nc(N)c3)nc2n1C[C@H](C)Oc1cccc(Cl)n1 (single isomer, unassigned)	not satisfied
Cn1c(C(F)F)nc2ccc(-c3cc(N)nc(N)c3)nc21	satisfied
Cc1nc2ccc(-c3cc(N)nc(N)c3)nc2n1C[C@@H](C)Oc1ncccc1Br (single isomer, unassigned)	not satisfied
Cc1nc2ccc(-c3cc(N)nc(N)c3)nc2n1Cc1cc(OC(F)(F)F)ccc1F	satisfied
Cc1nc2ccc(-c3cc(N)nc(N)c3)nc2n1CCc1cccs1	satisfied
Cc1nc2ccc(-c3cc(N)nc(N)c3)nc2n1CCc1cnn(-c2ccccc2)c1	satisfied

----------
Tested on: DYRK1A (Homo sapiens)
Measurement notes: Cellular DYRK1 autophosphorylation assay in U2-OS cells
Assay type: cell-based
Parameters: full-length, wild-type human DYRK1A (NM_001396) with an HA tag; expressed in transfected cells; host or cells: human U2-OS osteosarcoma cells, transient transfection of a pcDNA3.1 plasmid
Experimental conditions: U2-OS cells transfected with HA-tagged human DYRK1A, 5 hours exposure; read-out: IC50 (μM) P-Ser520-Dyrk1A -Cell assay

Molecule	Unit abbrev	IC50
N#Cc1nc2ccc(-c3cc(N)nc(N)c3)nc2n1CCCC(F)(F)F [Example 226]	µM	0.148
Cc1nc2ccc(-c3cc(N)nc(N)c3)nc2n1CCC1CCCO1 (stereo not drawn) [Example 85]	µM	0.143
COc1ccc2c(c1)CC(n1c(C)nc3ccc(-c4cc(N)nc(N)c4)nc31)C2 (stereo not drawn) [Example 98]	µM	0.019

----------
Examples of compounds with documented IC50 follow.
Tested on: DYRK1B (Homo sapiens)
Construct: full-length human kinases from Carna Biosciences; purchased Carna Biosciences 04-131
Sequence (Q9Y463 whole entry): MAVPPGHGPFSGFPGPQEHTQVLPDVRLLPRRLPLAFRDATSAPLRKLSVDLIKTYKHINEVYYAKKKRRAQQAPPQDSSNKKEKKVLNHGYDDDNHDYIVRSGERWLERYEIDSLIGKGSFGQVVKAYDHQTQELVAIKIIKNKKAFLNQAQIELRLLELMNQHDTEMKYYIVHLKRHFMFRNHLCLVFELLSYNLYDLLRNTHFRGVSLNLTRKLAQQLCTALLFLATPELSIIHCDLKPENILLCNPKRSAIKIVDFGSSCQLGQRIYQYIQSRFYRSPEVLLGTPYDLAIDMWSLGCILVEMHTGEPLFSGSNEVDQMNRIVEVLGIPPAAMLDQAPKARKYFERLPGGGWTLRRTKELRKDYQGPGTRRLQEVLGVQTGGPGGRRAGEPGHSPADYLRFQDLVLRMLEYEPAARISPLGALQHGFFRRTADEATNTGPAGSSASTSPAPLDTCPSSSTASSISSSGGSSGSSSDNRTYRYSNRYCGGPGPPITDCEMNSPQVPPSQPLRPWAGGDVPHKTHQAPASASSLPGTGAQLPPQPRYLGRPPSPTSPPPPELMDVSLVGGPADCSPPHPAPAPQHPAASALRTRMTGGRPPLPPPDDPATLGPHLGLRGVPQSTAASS
Measurement notes: Kinase TR-FRET assay, DYRK1B
Assay type: biochemical
Experimental conditions: full-length human kinase, 10 μM ATP
Measurement kind: IC50 (µM)

Compound	Quantitative readout
Cc1nc2ccc(-c3cc(N)nc(N)c3)nc2n1C[C@@H](C)Oc1ccccn1 (single isomer, unassigned) [Example 175]	0.016
Cc1nc2ccc(-c3cc(N)nc(N)c3)nc2n1C1CCOCC1 [Example 49]	0.017
Cn1c(C(F)F)nc2ccc(-c3cc(N)nc(N)c3)nc21 [Example 228]	0.012
Cc1nc2ccc(-c3cc(N)nc(N)c3)nc2n1CC1CCOC1 (centres unmarked) [Example 41]	0.011
Cc1nc2ccc(-c3cc(N)nc(N)c3)nc2n1C[C@H](C)Oc1ccccn1 (single isomer, unassigned) [Example 174]	0.013
Cc1nc2ccc(-c3cc(N)nc(N)c3)nc2n1CCCN1CCCC1=O [Example 13]	0.019
CC(=O)Nc1ccc(CCn2c(C)nc3ccc(-c4cc(N)nc(N)c4)nc32)cc1 [Example 24]	0.015
Cc1nc2ccc(-c3cc(N)nc(N)c3)nc2n1CC1CCCC1 [Example 89]	0.009
CCCn1c(C)nc2ccc(-c3cc(N)nc(N)c3)nc21 [Example 2]	0.001
CCCCn1c(CC)nc2ccc(-c3cc(N)nc(N)c3)nc21 [Example 157]	0.003
CCCCn1c(CCC)nc2ccc(-c3cc(N)nc(N)c3)nc21 [Example 161]	0.005
Cc1nc2ccc(-c3cc(N)nc(N)c3)nc2n1CC1Cc2ccccc21 (single isomer, unassigned) [Example 112]	0.014
Cc1nc2ccc(-c3cc(N)nc(N)c3)nc2n1[C@H](C)c1ccnc(F)c1 [Example 149]	0.004
CCCCCn1c(C)nc2ccc(-c3cc(N)nc(N)c3)nc21 [Example 65]	0.005
Cc1nc2ccc(-c3cc(N)nc(N)c3)nc2n1C1CCCC1 [Example 1]	0.004
CCCCn1c(C)nc2ccc(-c3cc(N)nc(NCc4ccccc4)c3)nc21 [Example 231]	0.003
Cc1nc2ccc(-c3cc(N)nc(N)c3)nc2n1C[C@H](C)Oc1cccc(Br)n1 [Example 180]	0.01
COc1ccccc1OCCn1c(C)nc2ccc(-c3cc(N)nc(N)c3)nc21 [Example 206]	0.007
COc1cc(Cn2c(C)nc3ccc(-c4cc(N)nc(N)c4)nc32)ccn1 [Example 72]	0.014
CCc1nc2ccc(-c3cc(N)nc(N)c3)nc2n1C1Cc2ccccc2C1 [Example 158]	0.016
CCn1c(C)nc2ccc(-c3cc(N)nc(N)c3)nc21 [Example 154]	0.002
Cc1nc2ccc(-c3cc(N)nc(N)c3)nc2n1CC1CCCCC1 [Example 55]	0.021
Cc1nc2ccc(-c3cc(N)nc(N)c3)nc2n1CCOc1ccc2[nH]ccc2c1 [Example 210]	0.006
